Organism: Mus musculus
ASSAY EXPLANATION: Skin irritant activity in NMRI mouse ear assessed as irritant dose 50 per ear after 24 hrs
Format: ADME, organism-based
ASSAY CONTEXT: in vivo, topical_or_ocular
Simple rule here: Activity less than 0.5 nmol is yes (1), otherwise no (0).

COMPOUND	LABEL
C/C=C(/C)C(=O)O[C@@]12C[C@@H](C)[C@@]3(O)[C@@H](C=C(CO)C[C@]4(O)C(=O)C(C)=C[C@@H]34)[C@@H]1[C@@]2(C)COC(=O)C(C)C	yes (1)
C/C=C(/C)C(=O)O[C@@]12C[C@@H](C)[C@@]3(O)[C@@H](C=C(COC(C)=O)C[C@]4(O)C(=O)C(C)=C[C@@H]34)[C@@H]1[C@@]2(C)COC(=O)C(C)C	no (0)
CCC(C)C(=O)O[C@@]12C[C@@H](C)[C@@]3(O)[C@@H](C=C(COC(C)=O)C[C@]4(O)C(=O)C(C)=C[C@@H]34)[C@@H]1C2(C)C (stereo not given in full)	no (0)
C/C=C(\C)C(=O)O[C@@]12C[C@@H](C)[C@@]3(O)[C@@H](C=C(CO)C[C@]4(O)C(=O)C(C)=C[C@@H]34)[C@@H]1C2(C)C	yes (1)
CC1=C[C@H]2[C@@]3(O)[C@H](C)C[C@]4(OC(=O)C(C)C)[C@H]([C@@H]3C=C(CO)C[C@]2(O)C1=O)C4(C)C	no (0)
CC(=O)OCC1=C[C@H]2[C@@H]3C(C)(C)[C@]3(OC(=O)C(C)C)C[C@@H](C)[C@]2(O)[C@@H]2C=C(C)C(=O)[C@@]2(O)C1	no (0)
C/C=C(/C)C(=O)O[C@@]12C[C@@H](C)[C@@]3(O)[C@@H](C=C(COC(C)=O)C[C@]4(O)C(=O)C(C)=C[C@@H]34)[C@@H]1[C@@]2(C)COC(=O)C(C)CC (stereo not given in full)	no (0)
CCCCCCCCCCCCCC(=O)O[C@@H]1[C@@H](C)[C@@]2(O)[C@@H](C=C(CO)C[C@]3(O)C(=O)C(C)=C[C@@H]23)[C@@H]2C(C)(C)[C@]12OC(C)=O [PHORBOL MYRISTATE ACETATE]	yes (1)
C/C=C(\C)C(=O)O[C@@]12C[C@@H](C)[C@@]3(O)[C@@H](C=C(COC(C)=O)C[C@]4(O)C(=O)C(C)=C[C@@H]34)[C@@H]1C2(C)C	no (0)
CCC(C)C(=O)O[C@@]12C[C@@H](C)[C@@]3(O)[C@@H](C=C(CO)C[C@]4(O)C(=O)C(C)=C[C@@H]34)[C@@H]1C2(C)C (stereo not given in full)	no (0)

----------
Species: Mus musculus
ASSAY EXPLANATION: Skin irritant activity in NMRI mouse ear assessed as irritancy 50 after 24 hrs
Type: ADME, organism-based
ASSAY CONTEXT: in vivo
OBSERVED PROPERTY: Activity

COMPOUND	OBSERVED PROPERTY	RESULT
C/C=C(/C)C(=O)O[C@@]12C[C@@H](C)[C@@]3(O)[C@@H](C=C(COC(C)=O)C[C@]4(O)C(=O)C(C)=C[C@@H]34)[C@@H]1[C@@]2(C)COC(=O)C(C)C	Activity	1.1 nmol⁻¹
CC1=C[C@H]2[C@@]3(O)[C@H](C)C[C@]4(OC(=O)C(C)C)[C@H]([C@@H]3C=C(CO)C[C@]2(O)C1=O)C4(C)C	Activity	1.9 nmol⁻¹
CCC(C)C(=O)O[C@@]12C[C@@H](C)[C@@]3(O)[C@@H](C=C(COC(C)=O)C[C@]4(O)C(=O)C(C)=C[C@@H]34)[C@@H]1C2(C)C (stereo not given in full)	Activity	0.7 nmol⁻¹
C/C=C(\C)C(=O)O[C@@]12C[C@@H](C)[C@@]3(O)[C@@H](C=C(COC(C)=O)C[C@]4(O)C(=O)C(C)=C[C@@H]34)[C@@H]1C2(C)C	Activity	0.8 nmol⁻¹
C/C=C(\C)C(=O)O[C@@]12C[C@@H](C)[C@@]3(O)[C@@H](C=C(CO)C[C@]4(O)C(=O)C(C)=C[C@@H]34)[C@@H]1C2(C)C	Activity	3.6 nmol⁻¹
CCC(C)C(=O)O[C@@]12C[C@@H](C)[C@@]3(O)[C@@H](C=C(CO)C[C@]4(O)C(=O)C(C)=C[C@@H]34)[C@@H]1C2(C)C (stereo not given in full)	Activity	1.2 nmol⁻¹
C/C=C(/C)C(=O)O[C@@]12C[C@@H](C)[C@@]3(O)[C@@H](C=C(CO)C[C@]4(O)C(=O)C(C)=C[C@@H]34)[C@@H]1[C@@]2(C)COC(=O)C(C)C	Activity	4 nmol⁻¹
CCCCCCCCCCCCCC(=O)O[C@@H]1[C@@H](C)[C@@]2(O)[C@@H](C=C(CO)C[C@]3(O)C(=O)C(C)=C[C@@H]23)[C@@H]2C(C)(C)[C@]12OC(C)=O [PHORBOL MYRISTATE ACETATE]	Activity	63 nmol⁻¹
C/C=C(/C)C(=O)O[C@@]12C[C@@H](C)[C@@]3(O)[C@@H](C=C(COC(C)=O)C[C@]4(O)C(=O)C(C)=C[C@@H]34)[C@@H]1[C@@]2(C)COC(=O)C(C)CC (stereo not given in full)	Activity	0.4 nmol⁻¹
CC(=O)OCC1=C[C@H]2[C@@H]3C(C)(C)[C@]3(OC(=O)C(C)C)C[C@@H](C)[C@]2(O)[C@@H]2C=C(C)C(=O)[C@@]2(O)C1	Activity	0.7 nmol⁻¹
